These measurements were taken from paper PMC4552014.

TESTED_SYSTEM: T1, hEphA2-Fc (human, UniProt P29317 24-537)
T1 construct: EphA2, human, as Fc fusion coated on 96-well plates; Probably the extracellular domain; also called huEphA2
T1 sequence (P29317 24-537): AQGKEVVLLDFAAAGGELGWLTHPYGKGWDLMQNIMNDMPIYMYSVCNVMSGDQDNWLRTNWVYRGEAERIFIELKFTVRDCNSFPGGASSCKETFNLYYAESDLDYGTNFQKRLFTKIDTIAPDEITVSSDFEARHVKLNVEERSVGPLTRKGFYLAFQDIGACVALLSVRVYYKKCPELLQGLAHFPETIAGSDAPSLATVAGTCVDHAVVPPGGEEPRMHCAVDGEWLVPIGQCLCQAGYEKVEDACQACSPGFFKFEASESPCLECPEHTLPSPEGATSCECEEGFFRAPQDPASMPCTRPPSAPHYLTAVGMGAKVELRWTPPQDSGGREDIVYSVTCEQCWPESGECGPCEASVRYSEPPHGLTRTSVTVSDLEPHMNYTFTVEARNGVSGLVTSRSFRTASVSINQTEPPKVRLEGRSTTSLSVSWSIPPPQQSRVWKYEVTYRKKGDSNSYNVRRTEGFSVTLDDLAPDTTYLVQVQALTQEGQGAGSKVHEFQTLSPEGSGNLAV
ASSAY_COMMENT: ELISA; end-point titration ELISA in 96-well plates coated with hEphA2-Fc or mEphA2-Fc; purified Abdurins titrated; detected by anti-FLAG M2-HRP; the constant is printed as 'Affinity (M)'
EXPERIMENTAL_CONTEXT: both partners purified
I'd appreciate it if you could supply Kd values for the items below.
# number only, unit nM dropped from output

Enquiry: I would be grateful if you could share the reported Kd for Abdurin B11, affinity matured EphA2 binder (designed binder, Abdurin scaffold (human IgG1 CH2 domain), stretch before loop BC; loop BC of matured clone B11, in place of Val266-Pro271 (VSHEDP) of the scaffold; Abdurin scaffold (human IgG1 CH2 domain), stretch between loops BC and DE; loop DE from the parental clone E10, in place of Glu293-Thr299 (EEQYNST); Abdurin scaffold (human IgG1 CH2 domain), stretch after loop DE; Not the phage loop DE clone of the …) GPSVFLFPPKPKDTLMISRTPEVTCVVVDYRADYLEVKFNWYVDGVEVHNAKTKPRQYDPLYGYRVVSVLTVLHQDWLNGKEYKCKVSNKALPAPIEKTISKAK .
Return: 4.43

Enquiry: I would be grateful if you could share the reported Kd for Abdurin D2, affinity matured EphA2 binder (designed binder, Abdurin scaffold (human IgG1 CH2 domain), stretch before loop BC; loop BC of matured clone D2, in place of Val266-Pro271 (VSHEDP) of the scaffold; Abdurin scaffold (human IgG1 CH2 domain), stretch between loops BC and DE; loop DE from the parental clone E10, in place of Glu293-Thr299 (EEQYNST); Abdurin scaffold (human IgG1 CH2 domain), stretch after loop DE; Not the phage loop DE clone of the …) GPSVFLFPPKPKDTLMISRTPEVTCVVVDYEAAALEVKFNWYVDGVEVHNAKTKPRQYDPLYGYRVVSVLTVLHQDWLNGKEYKCKVSNKALPAPIEKTISKAK .
Return: 2.55

Enquiry: I would be grateful if you could share the reported Kd for Abdurin G7, affinity matured EphA2 binder (designed binder, Abdurin scaffold (human IgG1 CH2 domain), stretch before loop BC; loop BC of matured clone G7, in place of Val266-Pro271 (VSHEDP) of the scaffold; Abdurin scaffold (human IgG1 CH2 domain), stretch between loops BC and DE; loop DE from the parental clone E10, in place of Glu293-Thr299 (EEQYNST); Abdurin scaffold (human IgG1 CH2 domain), stretch after loop DE; source: E. coli Shuffle cells, …) GPSVFLFPPKPKDTLMISRTPEVTCVVVDPHLGVDEVKFNWYVDGVEVHNAKTKPRQYDPLYGYRVVSVLTVLHQDWLNGKEYKCKVSNKALPAPIEKTISKAK .
Return: 8.06

Enquiry: I would be grateful if you could share the reported Kd for Abdurin B6, affinity matured EphA2 binder (designed binder, Abdurin scaffold (human IgG1 CH2 domain), stretch before loop BC; loop BC of matured clone B6, in place of Val266-Pro271 (VSHEDP) of the scaffold; Abdurin scaffold (human IgG1 CH2 domain), stretch between loops BC and DE; loop DE from the parental clone E10, in place of Glu293-Thr299 (EEQYNST); Abdurin scaffold (human IgG1 CH2 domain), stretch after loop DE; source: E. coli Shuffle cells, …) GPSVFLFPPKPKDTLMISRTPEVTCVVVDPYLHDDEVKFNWYVDGVEVHNAKTKPRQYDPLYGYRVVSVLTVLHQDWLNGKEYKCKVSNKALPAPIEKTISKAK .
Return: 6.54
